System: green peach aphid (Myzus persicae)
Assay protocol: Myzus test (MYZUPE spray treatment), Example 17
Assay type: in vivo
Assay context: application rate 100 g/ha, china cabbage leaf discs sprayed, after 6 days
Recorded efficacy in % by entry
Use % as the unit, but write only the number.

Some solved entries appear below for comparison.
Compound | efficacy in %, %
CC(C)ONC(=O)c1ccc(/C=C/C(=O)NC(c2cccc(C(F)(F)F)c2)C(F)(F)F)cc1Cl (racemic) | 90
O=C(/C=C/c1ccc(C(=O)Nc2ncccn2)c(Cl)c1)NC(c1cccc(C(F)(F)F)c1)C(F)(F)F (racemic) | 90
NC(=O)c1ccc(/C=C/C(=O)NC(c2cccc(C(F)(F)F)c2)C(F)(F)F)cc1C(F)(F)F (centres unmarked) | 100

Exercise: Quick one: give measured efficacy in % for CC(NC(=O)c1ccc(C=CC(=O)NC(c2cccc(C(F)(F)F)c2)C(F)(F)F)cc1Cl)c1nccs1 (mixture of isomers)
Key: 80

Exercise: Quick one: give measured efficacy in % for O=C(/C=C/c1ccc(C(=O)NC2C[S+]([O-])C2)c(Cl)c1)NC(c1cccc(C(F)(F)F)c1)C(F)(F)F (centres unmarked)
Key: 80

Exercise: Quick one: give measured efficacy in % for CC(C)NC(=O)c1ccc(/C=C/C(=O)NC(c2cccc(C(F)(F)F)c2)C(F)(F)F)cc1Br (centres unmarked)
Key: 100

Exercise: Quick one: give measured efficacy in % for CC(=O)N(Cc1ccc(/C=C/C(=O)NC(c2cccc(C(F)(F)F)c2)C(F)(F)F)cc1)Cc1ccccn1 (centres unmarked)
Key: 80

Exercise: Quick one: give measured efficacy in % for O=C(/C=C/c1ccc(C(=O)NCC2CC2)c(Cl)c1)NC(c1cccc(C(F)(F)F)c1)C(F)(F)F (centres unmarked)
Key: 100

Exercise: Quick one: give measured efficacy in % for CCn1c(C(=O)NC(c2cccc(C(F)(F)F)c2)C(F)(F)F)cc2cc(C(=O)NC3CC3)c(Cl)cc21 (racemic)
Key: 100

Exercise: Quick one: give measured efficacy in % for CCC(=O)NCc1ccc(/C=C/C(=O)NC(c2cccc(C(F)(F)F)c2)C(F)(F)F)cc1F (centres unmarked)
Key: 100

Exercise: Quick one: give measured efficacy in % for CN(C(=O)c1ccc(/C=C/C(=O)NC(c2cccc(C(F)(F)F)c2)C(F)(F)F)cc1C(F)(F)F)c1ccccn1 (centres unmarked)
Key: 90

====

Test system: green peach aphid (Myzus persicae)
Assay protocol: Myzus test (MYZUPE spray treatment), Example 17
Assay type: in vivo
Assay context: application rate 100 g/ha, china cabbage leaf discs sprayed, after 6 days
Result type: efficacy in % (%)
Use % as the unit, but write only the number.

Compound | Unit of measurement | efficacy in %
O=C(/C=C/c1ccc(C(=O)NCc2ccco2)c(C(F)(F)F)c1)NC(c1cccc(C(F)(F)F)c1)C(F)(F)F (stereo not drawn) [Ia-169] | % | 100
O=C(/C=C/c1ccc(C(=O)NC(CF)CF)c(Cl)c1)NC(c1cccc(C(F)(F)F)c1)C(F)(F)F (stereo not drawn) [Ia-155] | % | 100
O=C(/C=C/c1ccc(C(=O)NCc2ncccn2)c(C(F)(F)F)c1)NC(c1cccc(C(F)(F)F)c1)C(F)(F)F (stereo not drawn) [Ia-127] | % | 90
CC(NC(=O)c1ccc(/C=C/C(=O)NC(c2cccc(C(F)(F)F)c2)C(F)(F)F)cc1Cl)c1ccccn1 (stereo not drawn) [Ia-154] | % | 90
COC(=O)N(C)NC(=O)c1ccc(/C=C/C(=O)NC(c2cccc(C(F)(F)F)c2)C(F)(F)F)cc1C(F)(F)F (stereo not drawn) [Ia-170] | % | 100
COCC(C)NC(=O)c1ccc(/C=C/C(=O)NC(c2cccc(C(F)(F)F)c2)C(F)(F)F)cc1Cl (stereo not drawn) [Ia-164] | % | 100
O=C(/C=C/c1ccc(C(=O)NC2CC2)c(C(F)(F)F)c1)NC(c1ccc(F)c(C(F)(F)F)c1)C(F)(F)F (stereo not drawn) [Ia-280] | % | 100
O=C(/C=C/c1ccc(C(=O)NC2CC2)c(C(F)(F)F)c1)NC(c1ccc(F)c(Cl)c1)C(F)(F)F (stereo not drawn) [Ia-279] | % | 100

Now for the compound whose efficacy in % we want.
Exercise: Quick one: give measured efficacy in % for C#CC(C)NC(=O)c1ccc(/C=C/C(=O)NC(c2cccc(C(F)(F)F)c2)C(F)(F)F)cc1C(F)(F)F (stereo not drawn) [Ia-138]
Key: 80
